meta.source: PubChem BioAssay

Target Entity: Cell division control protein 42 homolog (Homo sapiens)
Assay Name: inhibition of fluorescent GTP binding to wildtype Cdc42 – biochemical, multiplex bead flow cytometry, Bodipy-FL-GTP, dose response (AID 1334)
Setup Conditions: bead-based flow cytometry, Bodipy-FL-GTP binding to GST-Cdc42; at 100 µM (top of the series) unless noted
Potency and affinity values are given separately.
Reported Property: fluorescence, percent of control (lower = inhibition)

Sample answers from the record:
O=C(COC(=O)C12CC3CC(CC(C3)C1)C2)Nc1nc2c(F)c(F)c(F)cc2s1 44.1%
Cc1ccc(N=Nc2c(N)[nH]n3c(=O)cc(C)nc23)cc1 48.4%
COc1ccc(/C=C(/C#N)C(=O)Nc2ccc(O)cc2)cc1C(=O)O 29.4%
CC(C)CCNC(=O)CN(CCCN1CCOCC1)C(=O)Cn1nnc(-c2ccc(F)cc2)n1 98.9%

INPUT: Fill in the blank: the reported fluorescence, percent of control (lower = inhibition) of `COc1cccc(CNCc2sc(C(=O)O)cc2C)c1OC` is ____.
OUTPUT: 61.7%
